- protocol: Metabolic (microsomal) stability assay, HLM
- Format: in vitro ADME
- run.parameters: human liver microsomes, 1 μM test compound, predicted clearance as percent of liver blood flow
measured.property: HLM QH (%)
Express the result in % but write the number alone.

Data request: Quick one: HLM QH of C[C@H]1CNCCCN1c1nccc(-c2noc3c2CC(F)(F)CC32CCCc3sc(N)c(C#N)c32)n1 (some centres unmarked) ?
Data returned: 39

Data request: Endpoint output: HLM QH of CC(Oc1nccc(-c2onc3c2CCC[C@@]32CCCc3sc(N)c(C#N)c32)n1)C12CCCN1CCC2 (some centres unmarked) . Value?
Data returned: 63

Data request: Entry under review: C[C@@H]1NCCCN(c2nccc(-c3onc4c3CCC[C@@]43CCCc4sc(N)c(C#N)c43)n2)[C@H]1C . Reported HLM QH?
Data returned: 51

Data request: HLM QH lookup needed for C[C@H]1CNCCCN1c1ncnc(-c2onc3c2CCC[C@@]32CCCc3sc(N)c(C#N)c32)n1 , thanks.
Data returned: 34
